Sourced from ChEMBL document CHEMBL1152832

System: Staphylococcus aureus
Assay: Inhibition of multidrug resistance efflux pump in Staphylococcus aureus ATCC 29213 assessed as potentiation factor measured by reduction in weighted average of ciprofloxacin MIC by serial dilution method
Consider the following compounds and their measured logPF readings.
# respond with the number and nothing more

Study these solved cases before continuing.
- compound: "CC(/C=C/C(=O)N1CCCCC1)=C\\c1ccc2c(c1)OCO2"
  parameter_measured: "logPF"
  reported_measurement: 2.25
- compound: "COc1cc(/C=C(C)/C=C/C(=O)N2CCCCC2)ccc1O"
  parameter_measured: "logPF"
  reported_measurement: 1
- compound: "CCC(/C=C/C(=O)Nc1ccccc1OC)=C\\c1ccc2c(c1)OCO2"
  parameter_measured: "logPF"
  reported_measurement: 1.78
- compound: "CCC(/C=C/CN1CCCCC1)=C\\c1ccc2c(c1)OCO2"
  parameter_measured: "logPF"
  reported_measurement: 1.85
- compound: "CC(/C=C/C(=O)N1CCCC1)=C\\c1ccc2c(c1)OCO2 (stereo in doubt; 3)"
  parameter_measured: "logPF"
  reported_measurement: 2.04

// fetch logPF given entry CC(/C=C/C(=O)N1CCN(C)CC1)=C\c1ccc2c(c1)OCO2
2.11

Return reported logPF. Input compound: CCCCC(/C=N/O)=C\c1ccc(OC)cc1
2

Note logPF for the compound shown: CCC(/C=C/C(=O)N1CCC(O)CC1)=C\c1ccc2c(c1)OCO2
2.32

* * *

Tested on: Staphylococcus aureus
Test: Inhibition of multidrug resistance efflux pump in Staphylococcus aureus ATCC 29213 assessed as potentiation factor measured by reduction in weighted average of ciprofloxacin MIC by serial dilution method
parameter_measured: logPF

Consider the following illustrative entries.
- molecule: "CC(/C=C/C(=O)N1CCC(O)CC1)=C\\c1ccc2c(c1)OCO2"
  logPF: 2.32
- molecule: "CCC(/C=N/C(CC)CO)=C\\c1ccc2c(c1)OCO2 (centres undefined)"
  logPF: 2.18
- molecule: "CCC(/C=C/C(=O)N[C@@](C)(O)c1ccccc1)=C\\c1ccc2c(c1)OCO2"
  logPF: 1.48

Give me measured logPF, please, for this molecule: CCC(/C=C/C(=O)NCC(=O)OC)=C\c1ccc2c(c1)OCO2
2.46

Report logPF, nothing else, for this molecule: CCC(/C=C/C(=O)Nc1ccccc1C)=C\c1ccc2c(c1)OCO2
1.78

Indicate the recorded logPF value for this molecule: CCCCC(/C=C/C(=O)N1CCN(C)CC1)=C\c1ccc2c(c1)OCO2
2.2

Give logPF for the following molecule: CCCCC(/C=C/C(=O)N1CCC(O)CC1)=C\c1ccc2c(c1)OCO2
1.85

Please report logPF for the following molecule: CC(/C=C/C(=O)NC(C)c1ccc(Br)cc1)=C\c1ccc2c(c1)OCO2 (centres undefined)
2.58

Output logPF of O=C(/C=C/C=C/c1ccc2c(c1)OCCO2)N1CCOCC1
1.6
